Test system: Calu-3
Assay Remarks: cell viability relative to DMSO; higher = less toxic
Study Conditions: 72 h; 100 nM
Let's look at some molecules and their measured cell viability.
# unit: % | format: bare number

# example entries with known answers
>>> test_result("C=CC(=O)Nc1cccc(Nc2nc(Nc3ccc(OCCOC)cc3)ncc2F)c1")
92.2
>>> test_result("NS(=O)(=O)c1ccc2c(c1)C1C=CCC1C(c1ccc(Br)cc1)N2 (centres undefined)")
101
>>> test_result("CN(CCOc1ccc(-c2ccc3c(c2)OCO3)cc1C(C)(C)C)CC(=O)O")
93.9
>>> test_result("CCCC(=O)Nc1ncnc2c1ncn2[C@@H]1O[C@@H]2COP(=O)(O)O[C@H]2[C@H]1OC(=O)CCC")
92.9
>>> test_result("O=C(NNc1nc2cc(F)ccc2n2cccc12)c1cnccn1")
93.3
>>> test_result("CCCS(=O)(=O)Nc1ccc(F)c(C(=O)c2c[nH]c3ncc(-c4ccc(Cl)cc4)cc23)c1F")
106
>>> test_result("O=C(O)/C=C\\c1c[nH]cn1 [cis-Urocanic acid]")
100
>>> test_result("CCCC[N+]1(C)[C@@H]2C[C@@H](OC(=O)[C@H](CO)c3ccccc3)C[C@H]1[C@@H]1O[C@@H]12 (some centres undefined) [butylscopolamine-bromide]")
99.5

For reference, reported cell viability for COc1ccc(CNC(=O)c2sc3nc(C)cc(C)c3c2N)cc1 stands at 98.2

For reference, reported cell viability for c1ccc2c(c1)CCCc1cc(NCCN3CCOCC3)nnc1-2 stands at 96.1

For reference, reported cell viability for COc1ccc(CC2NCCc3cc(OC)c(OC)cc32)cc1OC (centres undefined) [tetrahydropapaverine] stands at 99.7

For reference, reported cell viability for CC1(C)CCC(C)(C)c2cc(C3(c4ccc(C(=O)O)cc4)OCCO3)ccc21 stands at 100

For reference, reported cell viability for Cc1cnc(Nc2ccc(OCCN3CCCC3)cc2)nc1Nc1cccc(S(=O)(=O)NC(C)(C)C)c1 stands at 100

====

Let's look at some compounds and their measured drug sensitivity score.
System: HepG2
Assay Remarks: drug sensitivity score (DSS) for viability; higher = more toxic; extreme values may be limits of the assay
Study Conditions: 72 h
Respond with the number and no other words.

For reference, reported drug sensitivity score for C[C@@H](CN1CCC(Cc2ccccc2)CC1)[C@@H](O)c1ccc(O)cc1 stands at 0

For reference, reported drug sensitivity score for O=C(O)c1ccccc1Nc1cc(Cl)ccc1C(=O)O stands at 0

For reference, reported drug sensitivity score for C=C[C@@]1(C)CC(=O)[C@]2(O)[C@@]3(C)[C@@H](O)CCC(C)(C)[C@@H]3[C@H](OC(=O)CCN(C)C)[C@H](OC(C)=O)[C@@]2(C)O1 [colforsin-daproate] stands at 0

For reference, reported drug sensitivity score for CC1(C)O[C@@H]2C[C@H]3[C@@H]4C[C@H](F)C5=CC(=O)C=C[C@]5(C)[C@H]4[C@@H](O)C[C@]3(C)[C@]2(C(=O)CO)O1 [flunisolide] stands at 0

For reference, reported drug sensitivity score for CCOC(=O)N1CSC[C@H]1C(=O)O stands at 0.2

For reference, reported drug sensitivity score for O=C1[C@H](Cc2ccc(O)cc2)N2C(=O)CCN(C(=O)NCc3ccccc3)[C@H]2CN1Cc1cccc2ccccc12 stands at 2.7

For reference, reported drug sensitivity score for CC(=O)OCC(=O)[C@@]1(O)CC[C@H]2[C@@H]3CCC4=CC(=O)C=C[C@]4(C)[C@H]3[C@@H](O)C[C@@]21C [prednisolone-acetate] stands at 0
